B1: HDV Ribozyme (parent)
chain: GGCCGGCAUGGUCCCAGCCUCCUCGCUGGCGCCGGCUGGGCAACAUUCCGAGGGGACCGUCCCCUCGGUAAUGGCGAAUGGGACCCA

- Variants of: B1
- method.summary: self-cleavage, relative activity (ratio to wild type); higher = more cleavage; co-transcriptional
# maps each entry to its self-cleavage
Write the value as a bare number.

Completed entries (count: 10):
{"columns": ["var", "observed"],
 "data": [
  ["G1A C26U", 0],
  ["G25A C26A", 0.0852],
  ["G17C G34A", 0.102],
  ["C61G U72C", 0.401],
  ["U20A G54U", 0.0923],
  ["G31U U60C", 0.639],
  ["C15U A42U", 0.322],
  ["G53C G67C", 0.427],
  ["G28A C49U", 0.0683],
  ["U20G C57U", 0.302]
]}

Given the variant A16U C57G , what is its reported self-cleavage?
1.22

GET /values?readout=self-cleavage&item= C30U G39U
0.0936

Which self-cleavage value is on record for C13U C44A ?
0.18

// self-cleavage lookup, key: U9A C21G
0.0462

Given the entry C41G C86G , report its measured self-cleavage.
0.914

# get_value(readout='self-cleavage', item= C30U A78U )
0.101

Consider the variant C41G U79A and give its measured self-cleavage.
0.59
